The following compounds are listed with their measured AC50 values.
biological target: Histamine H2 receptor (Homo sapiens, UniProt P25021); type: functional, cell-based; note: assay procedure not described here
Sequence (P25021 whole entry): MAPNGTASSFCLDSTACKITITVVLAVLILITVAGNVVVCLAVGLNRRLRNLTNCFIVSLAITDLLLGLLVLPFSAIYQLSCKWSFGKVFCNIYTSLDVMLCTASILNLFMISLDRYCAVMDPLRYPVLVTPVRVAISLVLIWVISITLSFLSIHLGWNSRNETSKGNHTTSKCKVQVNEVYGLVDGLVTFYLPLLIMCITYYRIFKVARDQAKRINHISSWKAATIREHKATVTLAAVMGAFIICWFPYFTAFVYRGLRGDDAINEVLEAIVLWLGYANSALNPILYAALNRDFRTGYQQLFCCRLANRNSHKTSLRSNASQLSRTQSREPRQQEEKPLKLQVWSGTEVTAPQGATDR

Input: Item under review: Cc1noc(NS(=O)(=O)c2ccc(N)cc2)c1C [SULFISOXAZOLE] . Reported AC50?
Output: > 10 µM

Input: Item under review: O=C1CN(/N=C/c2ccc(-c3ccc([N+](=O)[O-])cc3)o2)C(O)=N1 [DANTROLENE] . Reported AC50?
Output: > 10 µM

Input: Item under review: Clc1ccc2c(N3CCN(CCCN4CCN(c5ccnc6cc(Cl)ccc56)CC4)CC3)ccnc2c1 [PIPERAQUINE] . Reported AC50?
Output: > 30 µM

Input: Item under review: O=C(O)CCNC(=O)c1ccccc1 [BETAMIPRON] . Reported AC50?
Output: > 30 µM

Input: Item under review: CC(=O)OCC(=O)[C@@]1(O)[C@H](C)C[C@H]2[C@@H]3CCC4=CC(=O)C=C[C@]4(C)[C@@]3(F)[C@@H](O)C[C@@]21C [DEXAMETHASONE ACETATE] . Reported AC50?
Output: > 10 µM

Input: Item under review: COc1ccccc1Oc1c(NS(=O)(=O)c2ccc(C(C)(C)C)cc2)nc(-c2ncccn2)nc1OCCO [BOSENTAN] . Reported AC50?
Output: > 10 µM

Input: Item under review: CCCCCCCCCCCCCCCCCCCCCC(=O)Nc1ccn([C@@H]2O[C@H](CO)[C@@H](O)[C@@H]2O)c(=O)n1 [ENOCITABINE] . Reported AC50?
Output: > 30 µM

Input: Item under review: CC(=O)[C@@]1(O)CC[C@H]2[C@@H]3C=C(Cl)C4=CC(=O)[C@@H]5C[C@@H]5[C@]4(C)[C@H]3CC[C@@]21C [CYPROTERONE] . Reported AC50?
Output: > 10 µM

Input: Item under review: CC(N)C(O)c1ccccc1 (configuration not stated) [PHENYLPROPANOLAMINE] . Reported AC50?
Output: > 10 µM

Input: Item under review: CC1=C(C)C(=O)C(C(CCCCCC(=O)O)c2ccccc2)=C(C)C1=O (configuration not stated) [SERATRODAST] . Reported AC50?
Output: > 30 µM

Input: Item under review: CN1CCN(C2=Nc3ccccc3Oc3ccc(Cl)cc32)CC1 [LOXAPINE] . Reported AC50?
Output: > 10 µM

Input: Item under review: O=C1CN=C(c2ccccc2)c2cc([N+](=O)[O-])ccc2N1 [NITRAZEPAM] . Reported AC50?
Output: > 30 µM

Input: Item under review: CCC(=O)O[C@H]1CC[C@H]2[C@@H]3CCC4=CC(=O)CC[C@]4(C)[C@H]3CC[C@]12C [TESTOSTERONE PROPIONATE] . Reported AC50?
Output: > 10 µM

Input: Item under review: Cc1cc(C(C)(C)C)cc(C)c1CC1=NCCN1 [XYLOMETAZOLINE] . Reported AC50?
Output: > 30 µM

Input: Item under review: O=C1CN=C(c2ccccn2)c2cc(Br)ccc2N1 [BROMAZEPAM] . Reported AC50?
Output: > 10 µM

Input: Item under review: COc1ccccc1OCCNCC(O)COc1cccc2[nH]c3ccccc3c12 (configuration not stated) [CARVEDILOL] . Reported AC50?
Output: > 10 µM

Input: Item under review: Cc1cc2cc3c(C)cc(=O)oc3c(C)c2o1 [TRIOXSALEN] . Reported AC50?
Output: > 10 µM

Input: Item under review: C[C@]12CC[C@@H]3c4ccc(O)cc4C[C@@H](CCCCCCCCC[S+]([O-])CCCC(F)(F)C(F)(F)F)[C@H]3[C@@H]1CC[C@@H]2O (some centres not stated) [FULVESTRANT] . Reported AC50?
Output: > 30 µM

Input: Item under review: CCOC(=O)C1=C[C@]2(CC)CCCN3CCc4c(n1c1ccccc41)[C@@H]32 [VINPOCETINE] . Reported AC50?
Output: > 30 µM

Input: Item under review: C#C[C@]1(OC(C)=O)CC[C@H]2[C@@H]3CCC4=C/C(=N/O)CC[C@@H]4[C@H]3CC[C@@]21CC [NORGESTIMATE] . Reported AC50?
Output: > 30 µM

Input: Item under review: CC(C(=O)O)c1ccc(CC2CCCC2=O)cc1 (configuration not stated) [LOXOPROFEN] . Reported AC50?
Output: > 30 µM

Input: Item under review: COc1ccc(-c2noc(CC(=O)O)c2-c2ccc(OC)cc2)cc1 [MOFEZOLAC] . Reported AC50?
Output: > 30 µM
